# Tested on: TK-10 renal
# TEST_NAME: NCI tumour cell line growth inhibition, 48 h
ASSAY_READOUT: TGI (µM)

[[record]]
compound = "Cn1c(=O)c(Cc2ccc(F)cc2F)cc2cnc(NC3CCOCC3)nc21"
assay_readout = "TGI"
op = ">"
measurement = 25

[[record]]
compound = "Cc1cc(Cl)ccc1NC(=O)C1C(=O)N(c2ccc(Cl)cc2C)C(=O)/C1=N\\N (stereo not given)"
assay_readout = "TGI"
op = "="
measurement = 99.3

[[record]]
compound = "O=C(/C=N/O)c1c(-c2ccccc2)[nH]c(-c2ccccc2)c1-c1ccccc1"
assay_readout = "TGI"
op = "="
measurement = 40.8

[[record]]
compound = "Nc1nc(Cl)nc2c1ncn2C1O[C@H](CO)[C@@H](O)[C@@H]1F (stereo not given in full)"
assay_readout = "TGI"
op = ">"
measurement = 100

[[record]]
compound = "Brc1ccc(-c2ccc(-c3ccc(Br)s3)s2)s1"
assay_readout = "TGI"
op = ">"
measurement = 100


* * *

# System: A549 NSCLC
# TEST_NAME: NCI tumour cell line growth inhibition, 48 h
ASSAY_READOUT: TGI

[[record]]
molecule = "CC1SC(c2cccs2)N(NC(=O)C(O)c2ccccc2)C1=O (stereo not drawn)"
measurement = "> 100 µM"

[[record]]
molecule = "O=C(Nc1ccccc1Cl)c1ccc(NC2=C(Cl)C(=O)N(Cc3ccccc3)C2=O)cc1"
measurement = "> 100 µM"

[[record]]
molecule = "C[n+]1c2ccccc2c(NC2CCNCC2)c2[nH]c3ccccc3c21"
measurement = "2.73 µM"

[[record]]
molecule = "Cc1cc2nc3c(C#N)c(-c4ccccc4)/c(=C\\Nc4cccc(C(F)(F)F)c4)c(=O)n3c2cc1C"
measurement = "> 100 µM"

[[record]]
molecule = "COc1cc(/C=C/C(=O)c2ccc(Nc3nc(Nc4ccc(F)cc4)nc(Nc4ccc(F)cc4)n3)cc2)cc(OC)c1OC"
measurement = "> 100 µM"

[[record]]
molecule = "CCCCOC(=O)N[C@H]1CCc2cc(OC)c(OC)c(OC)c2-c2ccc(SC)c(=O)cc21"
measurement = "98.9 µM"

[[record]]
molecule = "CC(=O)OC(C)(C)C1CCC(C)(C(O)COc2ccc(CCNC(=O)c3ccccc3)cc2)O1 (stereo not drawn)"
measurement = "> 100 µM"

[[record]]
molecule = "O=C1c2cccc3cccc(c23)C(=O)N1CCCCOc1ccc(-c2nc3ccc(N4CCOCC4)cc3[nH]2)cc1"
measurement = "> 84.4 µM"

[[record]]
molecule = "COc1ccc(N=NN2CCCC2)cc1"
measurement = "> 100 µM"

[[record]]
molecule = "COc1ccc2cc(C(=O)NCCc3ccccc3)ccc2c1OC"
measurement = "> 100 µM"

[[record]]
molecule = "O=C(/C=N/O)c1c(-c2ccccc2)[nH]c(-c2ccccc2)c1-c1ccccc1"
measurement = "45.2 µM"

[[record]]
molecule = "O=C(CC1C(=O)Nc2ccccc2S1=O)Nc1cccc(Cl)c1 (stereo not drawn)"
measurement = "> 100 µM"

[[record]]
molecule = "COc1ccc(OC)c2c1C[C@@H]1C(C#N)N3[C@H](Cc4c(OC)ccc(OC)c4[C@@H]3C)C(=O)N1[C@H]2C (stereo partly drawn)"
measurement = "> 54.3 µM"

[[record]]
molecule = "Nc1nc(Cl)cc(NCC2(CO)CC(CCCCc3ccccc3)C2)n1 (stereo not drawn)"
measurement = "> 100 µM"

[[record]]
molecule = "CCOC(=O)c1ccc(N=C/C=C(\\Nc2ccc(C(=O)OCC)cc2)c2ccc3ccccc3c2)cc1"
measurement = "> 100 µM"

[[record]]
molecule = "CC1OC(OC2C(CO)OC(O[C@H]3CC[C@@]4(C)C(=CC[C@H]5[C@@H]6C[C@@H]7O[C@](O)(CC[C@@H](C)COC8OC(CO)C(O)C(O)C8O)[C@@H](C)[C@@H]7[C@@]6(C)CC[C@@H]54)C3)C(OC3OC(C)C(O)C(O)C3O)C2O)C(O)C(O)C1O (stereo partly drawn)"
measurement = "3.16 µM"

[[record]]
molecule = "O=S1(=O)CSc2ccc3ccccc3c2-c2c1ccc1ccccc21"
measurement = "> 100 µM"

[[record]]
molecule = "CCOC(=O)C(=Cc1ccccc1Br)C(=O)OCC"
measurement = "> 100 µM"

[[record]]
molecule = "CC1(C)COC(c2cccc(C3=NC(C)(C)CO3)c2)=N1"
measurement = "> 100 µM"

[[record]]
molecule = "C[N+](C)(C)CCCCCc1c2nc(c(CCCCC[N+](C)(C)C)c3ccc([nH]3)c(CCCCC[N+](C)(C)C)c3ccc([nH]3)c(CCCCC[N+](C)(C)C)c3nc1C=C3)C=C2"
measurement = "> 100 µM"

[[record]]
molecule = "CN(C)CCn1cc(-c2ccc3c(Nc4ccc(CC(=O)Nc5cccc(F)c5)cc4)ncnc3c2)cn1"
measurement = "3.46 µM"

[[record]]
molecule = "N#Cc1ccc(Nc2nc3nc[nH]c3c(=O)[nH]2)cc1"
measurement = "> 100 µM"

[[record]]
molecule = "N#Cc1nn(-c2ccc(Cl)cc2)c(N)c2c(=N)n3nc(-c4ccccc4)cc3nc12"
measurement = "> 42.1 µM"

[[record]]
molecule = "Cc1c2c(nn1-c1ccc(S/N=C3\\SCC(=O)CN3c3ccccc3)cc1)-c1ccccc1CC2"
measurement = "> 50 µM"

[[record]]
molecule = "CC(O)CN(CCN(CC(C)O)CC(C)O)CC(C)O.O=[N+]([O-])O.[Cu+2] (stereo not drawn)"
measurement = "> 100 µM"

[[record]]
molecule = "COC(=O)C1Cc2c([nH]c3ccccc23)-c2[nH]c3ccccc3c2CC(NC(C)=O)C(=O)NCC(=O)N1 (stereo not drawn)"
measurement = "> 100 µM"

[[record]]
molecule = "COc1ccc2c(c1)CC[C@@H]1C2CC[C@]2(C)OC(=O)CCC12 (stereo partly drawn)"
measurement = "> 100 µM"

[[record]]
molecule = "O=C(OCCOCCOC(=O)c1c[nH]cc1-c1ccccc1)c1c[nH]cc1-c1ccccc1"
measurement = "66.4 µM"

[[record]]
molecule = "CCC1=C(C)C2=NC1=CC1=NC(=C(CC)/C1=C/O)C=C1N=C3C(=C1C)C(=O)C(C(=O)OC)C3=C1NC(=C2)C(C)C1CCC(=O)OC (stereo not drawn)"
measurement = "> 100 µM"

[[record]]
molecule = "Cc1ccc(/C=C(\\C#N)n2nnc3cc(F)c(F)cc32)cc1"
measurement = "7.3 µM"

[[record]]
molecule = "CC1=C(C)C(=O)C(C(C)C2=C(C)C(=O)C(C)=C(C)C2=O)=C(C)C1=O"
measurement = "> 100 µM"

[[record]]
molecule = "c1ccc(/C(=N/Nc2cnccn2)c2ncccn2)cc1"
measurement = "> 100 µM"

[[record]]
molecule = "COC(=O)c1oc2c(C(=O)/C=C/c3ccc(OC)cc3)c(OCCCN3CCCCC3)ccc2c1C"
measurement = "5.28 µM"

